Tested on: SK-MEL-2
ASSAY_PROCEDURE: NCI tumour cell line growth inhibition, 48 h
Calls of active or inactive are those of the source. No stated cut-off is given here; in the data, active = GI50 up to about 1.1 µM and inactive = higher.
Listing of entries alongside the reported GI50.

The following molecules have reported results that may help.
-- ask What does the record list as GI50 for O=C(c1ccccc1)C(c1ccccc1)C1(O)C(=O)Nc2ccccc21 (stereo unspecified) ?
-- reply > 100 µM (inactive)

-- ask If you can, please state the reported GI50 value of C1CNCCN2CCCNCCN(C1)CC2 .
-- reply > 100 µM (inactive)

-- ask # input molecule: C1CN2CCNCCN(CCN1)CC2 ; wanted: its GI50
-- reply > 100 µM (inactive)

-- ask Which GI50 value belongs to O=C(CCBr)N1CCN(C(=O)CCBr)CC1 [PIPOBROMAN] ?
-- reply 107 µM (inactive)

-- ask What does the record list as GI50 for OCCCNCC(O)c1ccc(OCc2ccccc2)c(OCc2ccccc2)c1 (stereo unspecified) ?
-- reply 8.02 µM (inactive)

***
-- ask Fill in: GI50 of CC(=O)Oc1c(OC(C)C)c(C)c(O[Si](C(C)C)(C(C)C)C(C)C)c2[nH]c3ccccc3c12 is ___
-- reply > 100 µM (inactive)
